Assay: Human hepatocyte clearance
Type: in vitro ADME
Details: human hepatocytes, 1 μM; read-out: Intrinsic Clearance (CL Int)
# hepatocyte CLint at 1 μM values compiled below
quantity: hepatocyte CLint at 1 μM (µL/min/1e6 cells)

[
  {
    "molecule": "COC(=O)[C@@H](C)N[P@@](=O)(OC[C@H]1OC(OC(=O)c2cccnc2)[C@H](O)[C@@H]1O)Oc1ccccc1 (single isomer, unassigned) [Compound 104]",
    "quantity": "hepatocyte CLint at 1 μM",
    "val": 14.4
  },
  {
    "molecule": "C[C@]12CC[C@H]3[C@@H](CCC4=CC(=O)CC[C@@]43C)[C@@H]1CC[C@@H]2O [Testosterone, reference compound]",
    "quantity": "hepatocyte CLint at 1 μM",
    "val": 75.8
  },
  {
    "molecule": "COC(=O)[C@@H](C)N[P@](=O)(OC[C@H]1OC(OC(=O)c2cccnc2)[C@H](O)[C@@H]1O)Oc1ccccc1 (single isomer, unassigned) [Compound 103]",
    "quantity": "hepatocyte CLint at 1 μM",
    "val": 31.3
  },
  {
    "molecule": "COC(=O)[C@@H](C)NP(=O)(OC[C@H]1OC(OC(=O)c2cccnc2)[C@H](O)[C@@H]1O)Oc1ccccc1 (stereo partly shown) [Compound 101]",
    "quantity": "hepatocyte CLint at 1 μM",
    "val": 53.9
  }
]

---

Assay: PK study in rats (plasma)
Assay type: in vivo
Settings: rat, plasma, po, 415 mg/kg, rats, oral; said to be consistent with hepatocyte stability in vitro; read-out: T1/2 following oral administration
quantity: half-life

[
  {
    "molecule": "O=C(OC1O[C@H](CO)[C@@H](O)[C@H]1O)c1cccnc1 (stereo partly shown)",
    "quantity": "half-life",
    "val": "5 to 6 h"
  }
]

---

# % Parent Remaining values compiled below
Test system: human hepatocytes
Test: Human hepatocyte stability
Settings: 30 mins

[
  {
    "compound": "COC(=O)[C@@H](C)N[P@@](=O)(OC[C@H]1OC(OC(=O)c2cccnc2)[C@H](O)[C@@H]1O)Oc1ccccc1 (single isomer, unassigned)",
    "% Parent Remaining, %": 65
  },
  {
    "compound": "O=C(OC1O[C@H](CO)[C@@H](O)[C@H]1O)c1cccnc1 (some centres unmarked)",
    "% Parent Remaining, %": 87.6
  },
  {
    "compound": "C[C@]12CC[C@H]3[C@@H](CCC4=CC(=O)CC[C@@]43C)[C@@H]1CC[C@@H]2O [Testosterone, reference compound]",
    "% Parent Remaining, %": 11
  },
  {
    "compound": "COC(=O)[C@@H](C)NP(=O)(OC[C@H]1OC(OC(=O)c2cccnc2)[C@H](O)[C@@H]1O)Oc1ccccc1 (some centres unmarked)",
    "% Parent Remaining, %": 20.1
  },
  {
    "compound": "COC(=O)[C@@H](C)N[P@](=O)(OC[C@H]1OC(OC(=O)c2cccnc2)[C@H](O)[C@@H]1O)Oc1ccccc1 (single isomer, unassigned)",
    "% Parent Remaining, %": 40
  }
]

---

# Papp A→B values compiled below
Assay: Caco-2 permeability assay
Conditions: human
Description: The endpoint measured is the intestinal permeability expressed as apparent permeability—Papp value. All permeability values are represented as ×10^−6 cm/sec.
quantity: Papp A→B (×10⁻⁶ cm/s)

[
  {
    "compound": "O=C(OC[C@H]1OC(O)[C@H](O)[C@@H]1O)c1ccccn1 (some centres unmarked) [Compound 102]",
    "quantity": "Papp A→B",
    "measure-unit": "×10⁻⁶ cm/s",
    "val": 0.9
  },
  {
    "compound": "NC(=O)N1c2ccccc2C=Cc2ccccc21 [Carbamazepine, reference compound]",
    "quantity": "Papp A→B",
    "measure-unit": "×10⁻⁶ cm/s",
    "val": 22.2
  },
  {
    "compound": "COC(=O)[C@@H](C)NP(=O)(OC[C@H]1OC(OC(=O)c2cccnc2)[C@H](O)[C@@H]1O)Oc1ccccc1 (some centres unmarked) [Compound 101]",
    "quantity": "Papp A→B",
    "measure-unit": "×10⁻⁶ cm/s",
    "val": 0.2
  },
  {
    "compound": "O=C(OC1O[C@H](CO)[C@@H](O)[C@H]1O)c1cccnc1 (some centres unmarked) [Compound 100]",
    "quantity": "Papp A→B",
    "measure-unit": "×10⁻⁶ cm/s",
    "val": 0.5
  },
  {
    "compound": "O=c1[nH]c2ccccc2n1CCCN1CCC(n2c(=O)[nH]c3cc(Cl)ccc32)CC1 [Domperidone, reference compound]",
    "quantity": "Papp A→B",
    "measure-unit": "×10⁻⁶ cm/s",
    "val": 3.9
  }
]
